The measurements presented in this section are drawn from patent US6627732B1.

Tested on: swine liver esterase
procedure-text: Decomposition of glutathione derivatives by swine liver esterase (physiological stability)
Type: in vitro ADME
experimental-setup: BSA/D-PBS pH 7.4, 196-244 μg/ml
quantity-measured: Decomposition rate constant by swine liver esterase

| molecule | result |
| --- | --- |
| CCCCCCCCOC(=O)[C@H](NC(=O)[C@H](CSCc1ccccc1)NC(=O)CC[C@H](N)C(=O)OCC)c1ccccc1.Cl [Comparative Example 2, reference compound] | 364 10^−4/unit/min |
| CCCCCCCCCCOC(=O)[C@H](NC(=O)[C@H](CSCc1ccccc1)NC(=O)CC[C@H](N)C(=O)OCC)c1ccccc1.Cl [Comparative Example 4, reference compound] | 88.5 10^−4/unit/min |
| CCCCCCCCCCCCCCOC(=O)[C@@H](N)CCC(=O)N[C@@H](CSCc1ccccc1)C(=O)N[C@@H](C(=O)OCC)c1ccccc1.Cl [Example 6] | 2.61 10^−4/unit/min |
| CCOC(=O)[C@@H](N)CCC(=O)N[C@@H](CSCc1ccccc1)C(=O)N[C@@H](C(=O)OCC)c1ccccc1.Cl [Comparative Example 1, reference compound] | 121 10^−4/unit/min |
| CCCCCCCCCCCCOC(=O)[C@@H](N)CCC(=O)N[C@@H](CSCc1ccccc1)C(=O)N[C@@H](C(=O)OCC)c1ccccc1.Cl [Example 7] | 15.2 10^−4/unit/min |
| CCCCCCCCCCCCCCCCCCOC(=O)[C@@H](N)CCC(=O)N[C@@H](CSCc1ccccc1)C(=O)N[C@@H](C(=O)OCC)c1ccccc1.Cl [Example 1] | 0.0901 10^−4/unit/min |
| CCCCCCCCCCCCCCCCOC(=O)[C@@H](N)CCC(=O)N[C@@H](CSCc1ccccc1)C(=O)N[C@@H](C(=O)OCC)c1ccccc1.Cl [Example 4] | 0.466 10^−4/unit/min |

----------
procedure-text: Pharmacokinetics after intravenous administration to rabbits, 2-compartment model (Example 25)
Assay type: in vivo, rabbit
experimental-setup: iv auricular vein 2 ml/kg, fat emulsion (Comparative Ex. 1: HPCD/glucose solution)

| compound | Clearance per body weight / mL/min/kg |
| --- | --- |
| CCCCCCCCCCCCCCCCCCOC(=O)[C@@H](N)CCC(=O)N[C@@H](CSCc1ccccc1)C(=O)N[C@@H](C(=O)OCC)c1ccccc1.Cl | 0.5 |
| CCCCCCCCCCCCCCCCCCCCCCOC(=O)[C@@H](N)CCC(=O)N[C@@H](CSCc1ccccc1)C(=O)N[C@@H](C(=O)OCC)c1ccccc1.Cl | 0.83 |
| CCCCCCCCCCCCCCOC(=O)[C@@H](N)CCC(=O)N[C@@H](CSCc1ccccc1)C(=O)N[C@@H](C(=O)OCC)c1ccccc1.Cl | 4.83 |
| CCCCCCCCCCCCOC(=O)[C@@H](N)CCC(=O)N[C@@H](CSCc1ccccc1)C(=O)N[C@@H](C(=O)OCC)c1ccccc1.Cl | 47.5 |
| CCCCCCCCCCCCCCCCOC(=O)[C@@H](N)CCC(=O)N[C@@H](CSCc1ccccc1)C(=O)N[C@@H](C(=O)OCC)c1ccccc1.Cl | 3.33 |
| CCOC(=O)[C@@H](N)CCC(=O)N[C@@H](CSCc1ccccc1)C(=O)N[C@@H](C(=O)OCC)c1ccccc1.Cl [Comparative Example 1, reference compound] | 254.5 |
| CCCCCCCCOC(=O)[C@H](NC(=O)[C@H](CSCc1ccccc1)NC(=O)CC[C@H](N)C(=O)OCC)c1ccccc1.Cl [Comparative Example 2, reference compound] | 156 |

----------
Tested on: HL-60 cells
procedure-text: HL-60 cell differentiation induction, NBT reducing activity, DMSO as solvent (Example 21)
Type: cell-based, human
experimental-setup: compound 10^−7 M in DMSO; with 9-cis-RA (5 × 10^−9 M)
Where a name gives a salt, the structure may show the parent alone. Starred links: 1 amine or outer side, 2 acyl side, 3 side chain; linkers in the order of their positions; H or OH if unused. Non-standard residues stand in square brackets, D forms with d. Residues, ends and D or L forms follow the SMILES beside them. *: point of attachment. γGlu = O=C(O)[C@H](CCC(=O)[*:2])N[*:1]; dPhg = N[C@@H](C(=O)O)c1ccccc1; Bn = c1ccc(C*)cc1
Documented Ratio of NBT reduction activity-positive cells across a set of compounds
quantity-measured: Ratio of NBT reduction activity-positive cells

| compound | result |
| --- | --- |
| N[C@@H](CCC(=O)N[C@@H](CSCc1ccccc1)C(=O)N[C@@H](C(=O)O)c1ccccc1)C(=O)O [Comparative Example 3, Glu(Cys(Bzl)-D-Phg-OH)-OH Hydrochloride, reference compound] (γGlu-Cys(Bn)-[dPhg]-OH) | 3.5% |
| CCCCCCCCCCCCCCCCOC(=O)[C@H](NC(=O)[C@H](CSCc1ccccc1)NC(=O)CC[C@H](N)C(=O)OCC)c1ccccc1.Cl | 4.2% |
| CCCCCCCCCCCCCCCCOC(=O)[C@@H](N)CCC(=O)N[C@@H](CSCc1ccccc1)C(=O)N[C@@H](C(=O)OCC)c1ccccc1.Cl | 5.6% |
| CCCCCCCCCCCCCCCCOC(=O)[C@H](CCC(=O)N[C@@H](CSCc1ccccc1)C(=O)N[C@@H](C(=O)OCC)c1ccccc1)NC(C)=O | 3.2% |

----------
Documented Ratio of NBT reduction activity-positive cells across a set of compounds
Test system: HL-60 cells
procedure-text: HL-60 cell differentiation induction, NBT reducing activity, DMSO as solvent (Example 21)
Format: cell-based, human
experimental-setup: compound 10^−7 M in DMSO; Solvent control (EtOH - 0.1%)
Counter-ions that a name gives are not always drawn. Starred links: 1 amine or outer side, 2 acyl side, 3 side chain; linkers in the order of their positions; H or OH if unused. Non-standard residues stand in square brackets, D forms with d. Residues, ends and D or L forms follow the SMILES beside them. *: point of attachment. γGlu = O=C(O)[C@H](CCC(=O)[*:2])N[*:1]; dPhg = N[C@@H](C(=O)O)c1ccccc1; Bn = c1ccc(C*)cc1
quantity-measured: Ratio of NBT reduction activity-positive cells (%)

| compound | target-or-test-system | readout-number |
| --- | --- | --- |
| N[C@@H](CCC(=O)N[C@@H](CSCc1ccccc1)C(=O)N[C@@H](C(=O)O)c1ccccc1)C(=O)O [Comparative Example 3, Glu(Cys(Bzl)-D-Phg-OH)-OH Hydrochloride, reference compound] (γGlu-Cys(Bn)-[dPhg]-OH) | HL-60 cells | 0.3 |
| CCCCCCCCCCCCCCCCOC(=O)[C@@H](N)CCC(=O)N[C@@H](CSCc1ccccc1)C(=O)N[C@@H](C(=O)OCC)c1ccccc1.Cl | HL-60 cells | 0.7 |
| CCCCCCCCCCCCCCCCOC(=O)[C@H](NC(=O)[C@H](CSCc1ccccc1)NC(=O)CC[C@H](N)C(=O)OCC)c1ccccc1.Cl | HL-60 cells | 0.8 |
| CCCCCCCCCCCCCCCCOC(=O)[C@H](CCC(=O)N[C@@H](CSCc1ccccc1)C(=O)N[C@@H](C(=O)OCC)c1ccccc1)NC(C)=O | HL-60 cells | 0.9 |

----------
procedure-text: Pharmacokinetics after intravenous administration to rabbits, 2-compartment model (Example 25)
Type: in vivo, rabbit
experimental-setup: iv auricular vein 2 ml/kg, fat emulsion (Comparative Ex. 1: HPCD/glucose solution)
Documented Distribution volume per body weight of the central compartment across a set of compounds
quantity-measured: Distribution volume per body weight of the central compartment

| compound | result |
| --- | --- |
| CCCCCCCCOC(=O)[C@H](NC(=O)[C@H](CSCc1ccccc1)NC(=O)CC[C@H](N)C(=O)OCC)c1ccccc1.Cl [Comparative Example 2, reference compound] | 4.18 L/kg |
| CCCCCCCCCCCCCCCCCCOC(=O)[C@@H](N)CCC(=O)N[C@@H](CSCc1ccccc1)C(=O)N[C@@H](C(=O)OCC)c1ccccc1.Cl | 0.06 L/kg |
| CCCCCCCCCCCCOC(=O)[C@@H](N)CCC(=O)N[C@@H](CSCc1ccccc1)C(=O)N[C@@H](C(=O)OCC)c1ccccc1.Cl | 0.47 L/kg |
| CCCCCCCCCCCCCCCCCCCCCCOC(=O)[C@@H](N)CCC(=O)N[C@@H](CSCc1ccccc1)C(=O)N[C@@H](C(=O)OCC)c1ccccc1.Cl | 0.07 L/kg |
| CCCCCCCCCCCCCCOC(=O)[C@@H](N)CCC(=O)N[C@@H](CSCc1ccccc1)C(=O)N[C@@H](C(=O)OCC)c1ccccc1.Cl | 0.08 L/kg |
| CCOC(=O)[C@@H](N)CCC(=O)N[C@@H](CSCc1ccccc1)C(=O)N[C@@H](C(=O)OCC)c1ccccc1.Cl [Comparative Example 1, reference compound] | 0.80 L/kg |
| CCCCCCCCCCCCCCCCOC(=O)[C@@H](N)CCC(=O)N[C@@H](CSCc1ccccc1)C(=O)N[C@@H](C(=O)OCC)c1ccccc1.Cl | 0.06 L/kg |
